- subject_of_test: MetRS (C. parvum) (Cryptosporidium parvum, UniProt Q5CVN0)
- Sequence (Q5CVN0 entry or part of it): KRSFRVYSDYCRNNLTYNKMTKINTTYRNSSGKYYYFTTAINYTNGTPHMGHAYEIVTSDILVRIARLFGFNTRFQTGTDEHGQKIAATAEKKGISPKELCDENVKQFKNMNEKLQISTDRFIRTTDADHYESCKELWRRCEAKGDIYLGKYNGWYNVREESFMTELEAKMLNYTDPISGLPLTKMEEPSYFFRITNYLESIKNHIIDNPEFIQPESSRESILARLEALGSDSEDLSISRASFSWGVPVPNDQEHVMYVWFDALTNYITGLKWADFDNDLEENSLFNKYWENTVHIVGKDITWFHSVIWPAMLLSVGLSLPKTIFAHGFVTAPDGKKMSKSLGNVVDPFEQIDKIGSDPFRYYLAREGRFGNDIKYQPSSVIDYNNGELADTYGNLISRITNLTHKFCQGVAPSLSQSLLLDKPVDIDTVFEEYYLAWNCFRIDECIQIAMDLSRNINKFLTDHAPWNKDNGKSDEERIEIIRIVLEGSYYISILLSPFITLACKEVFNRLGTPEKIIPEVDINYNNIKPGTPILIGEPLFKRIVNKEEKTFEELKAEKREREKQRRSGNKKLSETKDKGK
- assay_summary: MetRS (C. parvum) enzyme inhibition
- Format: biochemical
- experimental_conditions: read-out: (C) MetRS (C. parvum) IC50
The reader will find reported IC50 values listed item by item below.

Below: 2 molecules and their reported IC50.
-- ask Consider the molecule Clc1cc(Cl)cc(-c2cccc3nc(Cc4nc5nc(Cl)ccc5[nH]4)cn23)c1 and give its recorded IC50.
-- reply > 1000 nM

-- ask Consider the molecule NC(=O)Cn1c(C(=O)c2ccc(Cl)cc2Cl)cn(Cc2nc3ccc(Cl)nc3[nH]2)c1=O and give its recorded IC50.
-- reply < 40 nM

# context switch: different molecule, same IC50
-- ask Consider the molecule COc1ccc(-c2cccc3nc(Cc4nc5nc(C(F)(F)F)ccc5[nH]4)cn23)c(Cl)c1 and give its recorded IC50.
-- reply > 1000 nM

----------
- assay_summary: Cytotoxicity testing on mammalian cells (AlamarBlue, 48 hours)
- Type: cell-based
- experimental_conditions: human, CRL-8155 cells (human lymphoblasts), read-out: Mamm. cells (CRL8155) CC50
The reader will find reported CC50 at 48 h values listed item by item below.

Below: 2 compounds and their reported CC50 at 48 h.
-- ask Consider the compound CC(=O)NC[C@H]1CN(c2ccc(N3CCOCC3)c(F)c2)C(=O)O1 and give its recorded CC50 at 48 h.
-- reply > 33.7 µg/mL

-- ask Consider the compound Oc1cc(NCCCNCc2cc(Cl)cc(Cl)c2)nc2ccccc12 and give its recorded CC50 at 48 h.
-- reply > 7.5 µg/mL

More entries:
-- ask Consider the compound COc1cc(Cl)c(-c2cccc3nc(Cc4nc5nc(Cl)ccc5[nH]4)cn23)cc1OC and give its recorded CC50 at 48 h.
-- reply > 11.3 µg/mL

----------
- subject_of_test: UniProtKB Q5CVN0
- assay_summary: MetRS (C. parvum) enzyme inhibition
- Assay type: biochemical
- experimental_conditions: read-out: (C) MetRS (C. parvum) IC50
pIC50: −log10 of the molar value.
readout_kind: pIC50

Below: 3 compounds and their reported pIC50.
-- ask Consider the compound COc1cc(Cl)c(Cc2cn(Cc3nc4nc(Cl)ccc4[nH]3)c(=O)n2CC(C)(C)O)cc1OC [Compound 2240] and give its recorded pIC50.
-- reply > 7.40

-- ask Consider the compound CCOC(=O)Nn1c(C(=O)c2ccc(Cl)cc2Cl)cn(Cc2nc3ccc(Cl)nc3[nH]2)c1=O [Compound 2244] and give its recorded pIC50.
-- reply > 7.40

-- ask Consider the compound COc1ccc(-c2cnc(N3CCN(C(C)=O)CC3)c3nc(Cc4nc5nc(Cl)ccc5[nH]4)cn23)c(Cl)c1 [Compound 2185] and give its recorded pIC50.
-- reply > 7.40

More entries:
-- ask Consider the compound COc1ccc(-c2cccc3c2CN(Cc2nc4c(N)ncnc4[nH]2)C3=O)c(Cl)c1 [Compound 2239] and give its recorded pIC50.
-- reply > 7.40

-- ask Consider the compound Fc1ccc2[nH]c(Cc3cn4c(-c5ccc(C(F)(F)F)cc5Cl)cccc4n3)nc2n1 [Compound 2127] and give its recorded pIC50.
-- reply < 6.00

-- ask Consider the compound COc1ccc(-c2cccn3cc(Cc4nc5nc(Cl)ccc5[nH]4)nc23)c(Cl)c1 [Compound 2149] and give its recorded pIC50.
-- reply < 6.00

-- ask Consider the compound O=c1n(Cc2nc3ccc(F)nc3[nH]2)cc(Cc2ccc(Cl)cc2Cl)n1C1CCCCC1 [Compound 2071] and give its recorded pIC50.
-- reply > 7.40

-- ask Consider the compound CCn1c(Cc2ccc(Cl)cc2Cl)cn(Cc2cc3nc(F)ccc3[nH]2)c1=O [Compound 2112] and give its recorded pIC50.
-- reply > 7.40

----------
- Tested on: S. aureus MRSA (ATCC 33591)
- assay_summary: MIC susceptibility testing
- Type: cell-based, Staphylococcus aureus
- experimental_conditions: Staphylococcus aureus, MRSA ATCC33591; read-out: (G) MRSA (ATCC33591) MIC
The reader will find reported MIC values listed item by item below.

Below: 3 compounds and their reported MIC.
-- ask Consider the compound COc1ccc(-c2cccc3c2CN(Cc2nc4c(N)ncnc4[nH]2)C3=O)c(Cl)c1 [Compound 2239] and give its recorded MIC.
-- reply > 2 µg/mL

-- ask Consider the compound NC(=O)Cn1c(C(=O)c2ccc(Cl)cc2Cl)cn(Cc2nc3ccc(Cl)nc3[nH]2)c1=O [Compound 2234] and give its recorded MIC.
-- reply > 8 µg/mL

-- ask Consider the compound CCn1c(Cc2ccc(Cl)cc2Cl)cn(Cc2nc3ccc(Br)nc3[nH]2)c1=O [Compound 2091] and give its recorded MIC.
-- reply > 2.5 µg/mL

# context switch: different compound, same MIC
-- ask Consider the compound COCCn1c(Cc2ccc(Cl)cc2Cl)cn(Cc2nc3ccc(F)nc3[nH]2)c1=O [Compound 2077] and give its recorded MIC.
-- reply > 2.5 µg/mL

----------
The reader will find reported pIC50 values listed item by item below.
- subject_of_test: MetRS (C. parvum) (Cryptosporidium parvum, UniProt Q5CVN0)
- assay_summary: MetRS (C. parvum) enzyme inhibition
- Type: biochemical
- experimental_conditions: read-out: (C) MetRS (C. parvum) IC50
pIC50: −log10 of the molar value.

Below: 4 compounds and their reported pIC50.
-- ask Consider the compound COc1ccc(Cc2cn(Cc3nc4nc(Cl)ccc4[nH]3)c(=O)n2CC(C)(C)O)c(Cl)c1 and give its recorded pIC50.
-- reply > 7.40

-- ask Consider the compound CCOC(=O)Cn1c(C(=O)c2ccc(Cl)cc2Cl)cn(Cc2nc3ccc(Cl)nc3[nH]2)c1=O and give its recorded pIC50.
-- reply > 7.40

-- ask Consider the compound COc1ccc(-c2cccc3nn(Cc4nc5nc(Cl)ccc5[nH]4)cc23)c(Cl)c1 and give its recorded pIC50.
-- reply > 7.40

-- ask Consider the compound COc1ccc(-c2ccc(NC(C)=O)c3nc(Cc4nc5nc(F)ccc5[nH]4)cn23)c(Cl)c1 and give its recorded pIC50.
-- reply > 7.40

# context switch: different compound, same pIC50
-- ask Consider the compound COc1ccc(-c2cccc3c2CN(Cc2nc4nc(Cl)ccc4[nH]2)C3=O)c(Cl)c1 and give its recorded pIC50.
-- reply > 7.40

----------
The reader will find reported MIC values listed item by item below.
- Tested on: S. aureus MRSA (ATCC 33591)
- assay_summary: MIC susceptibility testing
- Assay type: cell-based, Staphylococcus aureus
- experimental_conditions: Staphylococcus aureus, MRSA ATCC33591; read-out: (G) MRSA (ATCC33591) MIC

-- ask Consider the compound COc1cc(Cl)c(-c2cccc3c2CN(Cc2nc4nc(Cl)ccc4[nH]2)C3=O)cc1OC and give its recorded MIC.
-- reply < 0.00781 µg/mL

More entries:
-- ask Consider the compound CCNC(=O)n1c(Cc2ccc(Cl)cc2Cl)cn(Cc2nc3nc(Cl)ccc3[nH]2)c1=O and give its recorded MIC.
-- reply > 2 µg/mL

-- ask Consider the compound COc1ccc(-c2nccn3c(=O)n(Cc4nc5c(Cl)c(Cl)ccc5[nH]4)cc23)c(Cl)c1 and give its recorded MIC.
-- reply > 2 µg/mL

-- ask Consider the compound COc1ccc(-c2cn(Cc3ccccc3)c3c2CN(Cc2nc4nc(Cl)ccc4[nH]2)CC3)c(Cl)c1 and give its recorded MIC.
-- reply > 2.5 µg/mL

-- ask Consider the compound CCCn1c(Cc2ccc(Cl)cc2Cl)cn(Cc2nc3ccc(Cl)nc3[nH]2)c1=O and give its recorded MIC.
-- reply > 2.5 µg/mL

-- ask Consider the compound COc1ccc(-c2cccc3c2CN(Cc2nc4nc(C(F)(F)F)nc(N)c4[nH]2)C3=O)c(Cl)c1 and give its recorded MIC.
-- reply > 2 µg/mL

----------
- subject_of_test: MetRS (T. brucei) (Trypanosoma brucei brucei, UniProt Q38C91)
- Sequence (Q38C91 1-773): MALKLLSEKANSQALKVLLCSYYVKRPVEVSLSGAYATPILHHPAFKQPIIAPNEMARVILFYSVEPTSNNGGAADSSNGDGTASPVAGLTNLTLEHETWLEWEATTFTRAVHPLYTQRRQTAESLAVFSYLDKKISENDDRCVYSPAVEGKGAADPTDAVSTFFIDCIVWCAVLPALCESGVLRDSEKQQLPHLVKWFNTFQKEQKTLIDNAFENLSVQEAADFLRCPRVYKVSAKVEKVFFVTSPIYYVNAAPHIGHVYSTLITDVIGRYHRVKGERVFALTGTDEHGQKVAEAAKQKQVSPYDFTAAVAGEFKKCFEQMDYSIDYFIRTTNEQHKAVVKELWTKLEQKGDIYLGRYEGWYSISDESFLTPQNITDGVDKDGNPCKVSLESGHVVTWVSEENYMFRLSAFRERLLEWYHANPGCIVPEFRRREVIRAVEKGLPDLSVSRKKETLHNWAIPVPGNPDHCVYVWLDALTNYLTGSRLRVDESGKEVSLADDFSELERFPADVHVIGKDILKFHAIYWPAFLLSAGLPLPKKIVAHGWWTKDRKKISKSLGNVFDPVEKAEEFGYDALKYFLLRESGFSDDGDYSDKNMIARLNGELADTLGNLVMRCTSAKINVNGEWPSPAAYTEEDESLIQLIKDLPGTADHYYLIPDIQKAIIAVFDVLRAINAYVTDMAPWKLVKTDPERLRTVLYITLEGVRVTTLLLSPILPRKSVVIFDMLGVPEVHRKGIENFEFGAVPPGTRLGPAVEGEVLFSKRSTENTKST
pIC50: −log10 of the molar value.
The reader will find reported pIC50 values listed item by item below.

Below: 5 compounds and their reported pIC50.
-- ask Write pIC50 of COc1cc(-c2cccc3nc(Cc4nc5nc(Br)ccc5[nH]4)cn23)c(Cl)cc1Cl ; system used: MetRS (T. brucei) (Trypanosoma brucei brucei, UniProt Q38C91)
-- reply > 7.40

-- ask Write pIC50 of COc1ccc(-c2ccc(NC(C)=O)c3nc(Cc4nc5nc(Cl)ccc5[nH]4)cn23)c(Cl)c1 ; system used: MetRS (T. brucei) (Trypanosoma brucei brucei, UniProt Q38C91)
-- reply > 7.40

-- ask Write pIC50 of CS(=O)(=O)c1nc(Cc2ccc(Cl)cc2Cl)cn1Cc1nc2nc(Cl)ccc2[nH]1 ; system used: MetRS (T. brucei) (Trypanosoma brucei brucei, UniProt Q38C91)
-- reply > 7.40

-- ask Write pIC50 of Clc1cc(Cl)cc(-c2cccc3nc(Cc4nc5nc(Cl)ccc5[nH]4)cn23)c1 ; system used: MetRS (T. brucei) (Trypanosoma brucei brucei, UniProt Q38C91)
-- reply 6.72

-- ask Write pIC50 of COc1ccc(-c2cccn3cc(Cc4nc5nc(Cl)ccc5[nH]4)nc23)c(Cl)c1 ; system used: MetRS (T. brucei) (Trypanosoma brucei brucei, UniProt Q38C91)
-- reply 7.35

More entries:
-- ask Write pIC50 of COc1ccc(-c2cccc3nc(Cc4nc5nc(Cl)ccc5[nH]4)oc23)c(Cl)c1 ; system used: MetRS (T. brucei) (Trypanosoma brucei brucei, UniProt Q38C91)
-- reply > 7.40

-- ask Write pIC50 of CCn1c(Cc2ccc(OC)cc2Cl)cn(Cc2nc3nc(Cl)ccc3[nH]2)c1=O ; system used: MetRS (T. brucei) (Trypanosoma brucei brucei, UniProt Q38C91)
-- reply > 7.40

-- ask Write pIC50 of COc1ccc(-c2ccc(NS(C)(=O)=O)c3nc(Cc4nc5nc(Cl)ccc5[nH]4)cn23)c(Cl)c1 ; system used: MetRS (T. brucei) (Trypanosoma brucei brucei, UniProt Q38C91)
-- reply > 7.40

-- ask Write pIC50 of COc1ccc(-c2cccc3nc(Cc4nc5nc(C(F)(F)F)ccc5[nH]4)cn23)c(Cl)c1 ; system used: MetRS (T. brucei) (Trypanosoma brucei brucei, UniProt Q38C91)
-- reply > 7.40

-- ask Write pIC50 of CCn1c(Cc2ccc(Cl)cc2Cl)cn(C(C)c2nc3nc(F)ccc3[nH]2)c1=O (stereo not shown) ; system used: MetRS (T. brucei) (Trypanosoma brucei brucei, UniProt Q38C91)
-- reply > 7.40

-- ask Write pIC50 of COc1ccc(-c2cccc3c2CN(Cc2nc4nc(Cl)ccc4[nH]2)C3)c(Cl)c1 ; system used: MetRS (T. brucei) (Trypanosoma brucei brucei, UniProt Q38C91)
-- reply 7.28

-- ask Write pIC50 of C#CCn1c(Cc2ccc(Cl)cc2Cl)cn(Cc2nc3ccc(F)nc3[nH]2)c1=O ; system used: MetRS (T. brucei) (Trypanosoma brucei brucei, UniProt Q38C91)
-- reply > 7.40
